molecular target: recombinant his-tagged homotrimeric SARS-CoV-2 spike protein (SARS-CoV-2, UniProt P0DTC2 16-1211); experiment: flow cytometry, blocking of binding to hACE-2 cells
Quantity name: percent blocking
A bare number is not enough; add the unit after it.

1035423 (antibody, V domains shown) VH: EVKLEESGGGLVQPGGSMKLSCTASGFTFSDAWMDWVRQSPEKGLEWVAEIRNKANNHATYYAESVKGRFTISRDDSKSSVYLQMNSLRAEDTGIYYCILFITYAMDYWGQGTSVTVSS VL: DIVLTQSQKFMSTSVGDRVSITCKASQNVRTAVAWYQQKPGQSPKALIYLASNRHTGVPDRFTGSGSGTDFTLTISNVQSEDLADYFCLQHWNYPLTFGSGTKLELK: 91.6%
1035753 (antibody, V domains shown) VH: EVQLQQSGAELVRPGALVKLSCKASGFNIKDYYMHWVKQRPEQGLEWIGWIDPENGNTIYDPKFLGKASITADTSSNTAYLQLSSLTSEDTAVYYCARWYYYAMDSWGQGTSVTVSS VL: DIQMTQTTSSLSASLGDRVTISCSASQGISNYLNWYQQKPDGTVKLLIYYTSSLHSGVPSRFSGSGSGTDYSLTISNLEPEDIATYYCQQYSKLPFTFGGGTNLEMK: 96.6%

What the record says about 1035211 (antibody, V domains shown) VH: QVQLQQSGAELARPGASVKMSCKASGYTFTNYTMHWVKQRPGQGLEWIGYINPSSGYTNYNQKFKDKATLTADKSSSTAYMQLSSLTSEDSAVYYCARRNPLYAMDYWGQGTSVTVSS VL: DIKMTQSPSSMYASLGERVTITCKASQDINSYLNWFQQKPGKSPKTLIYRANRLVDGVPSRFSGSGSGQDYSLTISSLEFEDMGIYYCLQYDEFPYTFGGGTKLEIK : percent blocking is 78.6%
